method: physchem
testContext: 20 °C, organic solvent or mixture
Counter-ions that a name gives are not always drawn.
The reader will find reported solubility values listed item by item below.
observedProperty: solubility (mg/mL)

| compound | observedProperty | recordedNumber |
| --- | --- | --- |
| Cc1nc2n(c(=O)c1CCN1CCC(c3noc4cc(F)ccc34)CC1)CCCC2 [Risperidone] | solubility | 500 |
| CC12CC3CC(C)(C1)CC(N)(C3)C2 [Memantine hydrochloride] | solubility | 130 |
| CCN(C)C(=O)Oc1cccc([C@H](C)N(C)C)c1 [Rivastigmine tartrate] | solubility | 200 |
| O=C1CCc2ccc(OCCCCN3CCN(c4cccc(Cl)c4Cl)CC3)cc2N1 [Aripiprazole] | solubility | 400 |
| O=C(CCCN1CCC(O)(c2ccc(Cl)cc2)CC1)c1ccc(F)cc1 [Haloperidol] | solubility | 110 |
| CNCC[C@H](Oc1cccc2ccccc12)c1cccs1 [Duloxetine hydrochloride] | solubility | 400 |
| COc1cc(C(C)=O)ccc1OCCCN1CCC(c2noc3cc(F)ccc23)CC1 [Iloperidone] | solubility | 200 |
